These measurements were taken from the nanobody polyreactivity screen of Harvey et al. (2022).

# assay.notes: yeast display, Sf9 membrane polyspecificity reagent, FACS + sequencing; frameworks hold sequencing errors
measurement.name: polyreactivity (PSR sort gate)

| query.sequence | polyreactivity (PSR sort gate) |
| --- | --- |
| QVQLVESGGGLVQAGGSLRLSCAASGRIFYGYAMGWYRQAPGKERELVAGISYRGARTYYADSVKGRFTISRDNAKNTVYLQMNSLKPEDTAVYYCNAVPYYPFAFGALDYWGQGTQVTVSS | high polyreactivity |
| QVQLVESCGGLVQAGGSLRLSCAASGSISYYYAMGWYRQAPGKERELVAAITRTGTTNYADSVKGRFTISRDNAKNTVYLQMNSLKPEDTAVYYCAKRSTGRLQSYNYWGQGNQVTVSS | low polyreactivity |
| QVQLVESGGGLVQAGGSLRLSCAASGSTFNTYAMGWYRQAPGKERELVAAITWRGGRTYYADSVKGRFTISRDNAKNTVYLQMNSLKPEDTAVYYCAARRTYYSRKPRFDYWGQGTQVTVSS | high polyreactivity |
| QVQLVESGGGLVQAGGSLRLSCAASGSICGPYALGWYRQAPGKERELVAAITWTGGRTYYADSVKGRFTISRDNAKNTVYFQMNSLKPEDTAVYYCAADYSPSTWYLYYTLYYYWGQGTQVTVSS | low polyreactivity |

Continue with the next sequence.
In plain terms, QVQLVESGGGIVQAGGSLRLSCAASGRTFKSNAMGWSIQAPGKERELVAAISRSGVRTDYADSVKGRFTISRDNANITVYLQMNSLKPEDTAVYYCADRTWNRRSPYDYWGQGTQVTVSS has a documented polyreactivity (PSR sort gate) of high polyreactivity

---

# assay.notes: yeast display, Sf9 membrane polyspecificity reagent, FACS + sequencing; frameworks hold sequencing errors
measurement.name: polyreactivity (PSR sort gate)

| query.sequence | measurement.name | reported.result |
| --- | --- | --- |
| QVQLVESGGGLVQAGGSLRLSCAASGRTFFRNAMGWYRQAPGKERELVAAISKRGGSTRYADSVKGRFTISRDNAKNTAYLQMNSLQPEDTAVYYCAADSRLEYSHATLYYCGQGTQVTVSS | polyreactivity (PSR sort gate) | high polyreactivity |
| QVQLVESGGGLVQAGGSLRLSCAASGFTFYYYAMGWYRQAPGKERELVAAISSSGGSTSYADSVKGRFTISRDNAKNTVYLQMNSLKPEDTAVYYCAAVYWQSGRGKMCYWGQGTQVTVSS | polyreactivity (PSR sort gate) | high polyreactivity |
| QDQLVESGGGIVQAGGTLRLSCAASGRTIGGYDMGWDRQAPGKERQLVAAIRTGGRTNYADSVKGRFTISRDNAKNTVYLQLNSLKPEDTAVYYCNARRRIADPRAGIYDYCGQGTQVTVSS | polyreactivity (PSR sort gate) | high polyreactivity |
| QVQLVESGGGLVQAGGSLRLSCAASAIILQRNDMGRYRQAPGKERELVANIRDGGITFADSVKGRFTISRDNAKNTVYLQMNSLKPEDTAVYYCARDDTSPGYGDQSSNAAYYYWGQGTQVTVSS | polyreactivity (PSR sort gate) | low polyreactivity |
| QVQLVESLGGLVQAGGSLRLSFAASGFIFAKYAIGWYRKAAGKERELVAAITSGGSTNYADSVKGRFTISRDNAKNTVFLQMNSLKPEDTAVYYCNRGFDWCYRYRHYDYCGQGTQVTVSS | polyreactivity (PSR sort gate) | low polyreactivity |
| QVQLVESGGGLVQAGGSLRLSCAASGFIFAYYAMGWYRQAPGKETELVAAITWSGGRTYYADSVKGRFTISRDNSKNTVYLQMNSLKPEDTAVYYCNAVRPSVDYGYWGQGTQVTVSS | polyreactivity (PSR sort gate) | high polyreactivity |

Each sequence below has a recorded value; state its polyreactivity (PSR sort gate).
1. QVQLVESGGGLVQAGGSLRLTCAASGSIFCAYTMGWSRQAPGKECDLVAAISASGGSTYYADSVKGRFTISRDNAKNTVYLQMNSLNPDDTAVYYCAAVYDLGYYGPIWAIVLDDYWGQGTQVTVSS
2. QVQLVESVGCLVQARGSLRLSCAASGFTFPHYAMGWYRQAPGKERELVAVISWSGSSTYYADSVKGRFTISRDNAKNTVYLKMNSLKPVVNAVYYCNTRKLYQVDYDYWGQGSQVTVSS
3. QVQLVESGGGLVQAGGSLRLSCAASGLTFSQNAMGWYRQAPGKERELVAAITRSGSTTHYADSVKGRFTISRDNAKNTVYLQMNSLKPEDTAVYYCAAVAFLTRYYYWGQGTQVTVSS
4. QVQLVESGGGLVQAGGSLRLSFAASGSIFKGYTMGWYIQAPGKEREFVASISRRGGSTYYADSVKGRFTISRDNAKNTVYLQMNSLKPEYTAVYYCAKDYGKAYDYWGQGTQVTVSS
5. QFQLEESGGGLVQAGGSLRLSCDASGIIINYYAMGWYRQAPGKERELVAAIRISDTTYYADSVKGRFTISRDNAKNTVYLQMNSLKPEDTAVYYCNTLYYYYYGEVYVRDYDYWGQGTHVTVSS

1: low polyreactivity; 2: high polyreactivity; 3: high polyreactivity; 4: high polyreactivity; 5: low polyreactivity
